- SYSTEM UNDER TEST: gt1b NS3 (Hepatitis C virus genotype 1b strain N, UniProt Q9WPH5 1028-1658)
- ASSAY NAME: filter binding; 3 mM Mg2+; (stopped-flow kon 13 uM-1 s-1, Fig 2A); 25 mM MOPS-NH4+ pH 6.5, 3 mM MgCl2, 30 mM NaCl, 1% glycerol, 2 mM DTT, 0.1% Triton X-100; filter binding 37 C, 0.5 nM RNA, Hill fit; stopped flow 25 C
- EXPERIMENTAL SETUP: protein: recombinant; tags: His6-SUMO removed (native N terminus); 5' Cy3 top strand via C3 amino linker (stopped flow); 3' overhang 18 nt on strand 1
REPORTED ENDPOINT: pKd
By convention, pKd is the negative base-10 log of a molar concentration.

Please indicate pKd recorded for 12bp/18-OH (dsRNA) RNA 1: CGGCAGCGAGGCAGAGGAGCAGAGGGAGCA RNA 2: GCCUCGCUGCCG
8.14
